# Study System: adenosine A1 receptor (Homo sapiens, UniProt P30542)
# Construct: expressed in transfected cells; host or cells: CHO (Chinese Hamster Ovary)
# Sequence (P30542 whole entry): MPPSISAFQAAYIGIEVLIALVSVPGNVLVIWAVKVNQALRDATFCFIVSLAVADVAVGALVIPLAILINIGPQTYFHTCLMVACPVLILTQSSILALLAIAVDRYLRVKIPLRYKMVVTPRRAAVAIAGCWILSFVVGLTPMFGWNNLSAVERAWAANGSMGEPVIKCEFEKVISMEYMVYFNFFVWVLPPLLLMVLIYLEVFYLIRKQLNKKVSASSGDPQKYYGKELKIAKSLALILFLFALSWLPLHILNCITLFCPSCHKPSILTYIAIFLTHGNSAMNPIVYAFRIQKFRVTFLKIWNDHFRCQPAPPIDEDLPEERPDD
# Test Description: Indirect determination of adenosine agonism by way of gene expression (cAMP-dependent luciferase reporter), A1 cells
# Format: cell-based
# Assay Setup: stably transfected CHO cells; 1 μM forskolin; concentration at which 50% of the luciferase response is inhibited
Measurement Label: EC50 (nM)
# output: bare number, implied unit nM

For orientation, consider the following solved cases.
{"Molecule": "COC(=O)c1c(N)c2c(-c3ccccc3)c(C#N)c(SCc3csc(-c4ccc(Cl)cc4)n3)nc2n1C [Example 3]", "Val": 5.3}
{"Molecule": "COC(=O)Cn1c(C(=O)OC)c(N)c2c(-c3ccc(OCCO)cc3)c(C#N)c(SCc3csc(-c4ccc(Cl)cc4)n3)nc21 [Example 2]", "Val": 1.7}
{"Molecule": "N#Cc1c(SCc2csc(-c3ccc(Cl)cc3)n2)nc2[nH]nc(N)c2c1-c1ccc(OCCO)cc1 [Example 21]", "Val": 10}
{"Molecule": "COC(=O)c1c(N)c2c(-c3ccc(OC[C@@H](O)CO)cc3)c(C#N)c(SCc3csc(-c4ccc(Cl)cc4)n3)nc2n1C [Example 12]", "Val": 11}
{"Molecule": "Cn1c(C(N)=O)c(N)c2c(-c3ccc(OCCO)cc3)c(C#N)c(SCc3cccc(C(N)=O)c3)nc21 [Example 16]", "Val": 4.9}

*Q* Using the record for COC(=O)c1c(N)c2c(-c3ccc(OCCO)cc3)c(C#N)c(SCc3cccc(C(N)=O)c3)nc2n1C [Example 15] , state its measured EC50.
*A* 3.7

*Q* Using the record for COC(=O)c1[nH]c2nc(SCc3csc(-c4ccc(Cl)cc4)n3)c(C#N)c(-c3ccc(OCCO)cc3)c2c1N [Example 17] , state its measured EC50.
*A* 3.7

*Q* Using the record for COC(=O)c1c(N)c2c(-c3ccc(OCCO)cc3)c(C#N)c(SCc3ccc(OC)nc3)nc2n1C [Example 5] , state its measured EC50.
*A* 1.5

*Q* Using the record for Cn1c(C(N)=O)c(N)c2c(-c3ccc(OCCO)cc3)c(C#N)c(SCc3csc(-c4ccc(Cl)cc4)n3)nc21 [Example 6] , state its measured EC50.
*A* 0.3
